Reference for the values: patent US11746097B2

Target: human LXRα-LBD (Homo sapiens)
Construct: Purified human LXRα-LBD (GST)
Sequence (Q13133 209-447 limits assumed): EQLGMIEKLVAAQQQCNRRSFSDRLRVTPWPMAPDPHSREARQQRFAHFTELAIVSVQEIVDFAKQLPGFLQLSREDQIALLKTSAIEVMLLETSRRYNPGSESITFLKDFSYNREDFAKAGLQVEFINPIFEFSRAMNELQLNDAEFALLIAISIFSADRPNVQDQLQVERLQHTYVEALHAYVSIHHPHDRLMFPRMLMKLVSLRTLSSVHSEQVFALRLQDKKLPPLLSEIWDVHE
Assay: Lantha Screen TR-FRET NR-cofactor peptide interaction assay
OBSERVATION TYPE: IC50 (nM)
Unit nM implied. Number only.

{"COMPOUND": "Cc1cc(C)c(S(=O)(=O)N2Cc3ccc(-c4cccc(S(C)(=O)=O)c4)cc3CC2C(=O)NCc2ccc(C#N)cc2)c(C)c1 (stereo not shown)", "IC50, nM": 8300}
{"COMPOUND": "COc1ccc(-c2ccc3nc(NS(=O)(=O)c4c(C)cc(C)cc4C)ccc3c2)cc1", "IC50, nM": 4300}
{"COMPOUND": "Cc1cc(C)c(S(=O)(=O)N2Cc3ccccc3CC2C(=O)NCCc2cccc(C#N)c2)c(C)c1 (stereo not shown)", "IC50, nM": 661}

Consider now this further compound.
Query string: Identify the measured IC50 of Cc1cc(C)c(S(=O)(=O)N2Cc3ccc(-c4cccc(S(C)(=O)=O)c4)cc3CC2C(=O)NCc2cccc(C#N)c2)c(C)c1 (stereo not shown) for human LXRα-LBD (Homo sapiens).
Result string: 20
